Molecular target: T1, full-length human OX40 expressed on HuT78 cells (HuT78/OX40) (human, UniProt P43489 29-277)
T1 sequence: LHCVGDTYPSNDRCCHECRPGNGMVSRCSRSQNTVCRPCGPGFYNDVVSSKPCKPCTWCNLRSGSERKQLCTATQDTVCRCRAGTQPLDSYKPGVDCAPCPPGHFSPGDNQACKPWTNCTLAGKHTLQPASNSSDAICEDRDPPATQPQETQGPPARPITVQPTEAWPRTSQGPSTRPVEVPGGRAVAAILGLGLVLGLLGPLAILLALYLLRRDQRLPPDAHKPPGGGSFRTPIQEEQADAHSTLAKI
Assay: flow cytometry on live HuT78/OX40 cells; Mean
quantity: Top(MFI)
Give your result in MFI as a bare value.

Consider the worked cases shown below.
Task: # return recorded Top(MFI) for entry 445-3 (antibody, V domains shown) VH: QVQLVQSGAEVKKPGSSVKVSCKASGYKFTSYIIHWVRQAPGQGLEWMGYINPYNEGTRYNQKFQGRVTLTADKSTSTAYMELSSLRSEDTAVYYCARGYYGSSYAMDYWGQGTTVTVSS VL: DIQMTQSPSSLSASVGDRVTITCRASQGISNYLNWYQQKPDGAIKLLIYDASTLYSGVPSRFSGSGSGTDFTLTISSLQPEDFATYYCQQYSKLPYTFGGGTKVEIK
Output: 910

Task: Tell me Top(MFI) reported for 445-3 IgG4 (antibody, V domains shown) VH: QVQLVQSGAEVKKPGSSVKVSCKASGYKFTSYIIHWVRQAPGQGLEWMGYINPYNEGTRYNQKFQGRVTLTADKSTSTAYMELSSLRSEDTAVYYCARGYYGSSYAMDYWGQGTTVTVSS VL: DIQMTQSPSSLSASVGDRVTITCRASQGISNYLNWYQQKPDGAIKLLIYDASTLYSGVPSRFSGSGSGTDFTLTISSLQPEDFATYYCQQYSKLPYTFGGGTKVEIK
Output: 892

Task: Dear colleague, please send me the reported Top(MFI) for 445-2 (antibody, V domains shown) VH: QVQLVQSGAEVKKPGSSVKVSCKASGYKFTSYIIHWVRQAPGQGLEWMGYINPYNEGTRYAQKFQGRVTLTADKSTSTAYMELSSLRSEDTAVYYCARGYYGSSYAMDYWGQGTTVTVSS VL: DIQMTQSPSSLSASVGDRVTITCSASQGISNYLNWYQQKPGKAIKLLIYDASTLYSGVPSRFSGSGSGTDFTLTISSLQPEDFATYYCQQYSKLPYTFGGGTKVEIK when you can.
Output: 620

Please find the next binder below.
Task: State its Top(MFI) for this binder: 445-1 (antibody, V domains shown) VH: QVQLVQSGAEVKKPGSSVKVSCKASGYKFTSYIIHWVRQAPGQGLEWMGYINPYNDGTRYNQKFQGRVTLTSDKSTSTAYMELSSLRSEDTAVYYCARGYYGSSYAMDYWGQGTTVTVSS VL: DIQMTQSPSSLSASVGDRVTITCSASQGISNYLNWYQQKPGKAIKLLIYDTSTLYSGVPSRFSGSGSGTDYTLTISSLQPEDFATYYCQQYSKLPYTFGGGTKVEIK
Output: 525
